measurement.target: Cyclin-dependent kinase 13 (Homo sapiens); further: in the data inactive means no Kd found up to 30 µM
Sequence (Q14004 whole entry): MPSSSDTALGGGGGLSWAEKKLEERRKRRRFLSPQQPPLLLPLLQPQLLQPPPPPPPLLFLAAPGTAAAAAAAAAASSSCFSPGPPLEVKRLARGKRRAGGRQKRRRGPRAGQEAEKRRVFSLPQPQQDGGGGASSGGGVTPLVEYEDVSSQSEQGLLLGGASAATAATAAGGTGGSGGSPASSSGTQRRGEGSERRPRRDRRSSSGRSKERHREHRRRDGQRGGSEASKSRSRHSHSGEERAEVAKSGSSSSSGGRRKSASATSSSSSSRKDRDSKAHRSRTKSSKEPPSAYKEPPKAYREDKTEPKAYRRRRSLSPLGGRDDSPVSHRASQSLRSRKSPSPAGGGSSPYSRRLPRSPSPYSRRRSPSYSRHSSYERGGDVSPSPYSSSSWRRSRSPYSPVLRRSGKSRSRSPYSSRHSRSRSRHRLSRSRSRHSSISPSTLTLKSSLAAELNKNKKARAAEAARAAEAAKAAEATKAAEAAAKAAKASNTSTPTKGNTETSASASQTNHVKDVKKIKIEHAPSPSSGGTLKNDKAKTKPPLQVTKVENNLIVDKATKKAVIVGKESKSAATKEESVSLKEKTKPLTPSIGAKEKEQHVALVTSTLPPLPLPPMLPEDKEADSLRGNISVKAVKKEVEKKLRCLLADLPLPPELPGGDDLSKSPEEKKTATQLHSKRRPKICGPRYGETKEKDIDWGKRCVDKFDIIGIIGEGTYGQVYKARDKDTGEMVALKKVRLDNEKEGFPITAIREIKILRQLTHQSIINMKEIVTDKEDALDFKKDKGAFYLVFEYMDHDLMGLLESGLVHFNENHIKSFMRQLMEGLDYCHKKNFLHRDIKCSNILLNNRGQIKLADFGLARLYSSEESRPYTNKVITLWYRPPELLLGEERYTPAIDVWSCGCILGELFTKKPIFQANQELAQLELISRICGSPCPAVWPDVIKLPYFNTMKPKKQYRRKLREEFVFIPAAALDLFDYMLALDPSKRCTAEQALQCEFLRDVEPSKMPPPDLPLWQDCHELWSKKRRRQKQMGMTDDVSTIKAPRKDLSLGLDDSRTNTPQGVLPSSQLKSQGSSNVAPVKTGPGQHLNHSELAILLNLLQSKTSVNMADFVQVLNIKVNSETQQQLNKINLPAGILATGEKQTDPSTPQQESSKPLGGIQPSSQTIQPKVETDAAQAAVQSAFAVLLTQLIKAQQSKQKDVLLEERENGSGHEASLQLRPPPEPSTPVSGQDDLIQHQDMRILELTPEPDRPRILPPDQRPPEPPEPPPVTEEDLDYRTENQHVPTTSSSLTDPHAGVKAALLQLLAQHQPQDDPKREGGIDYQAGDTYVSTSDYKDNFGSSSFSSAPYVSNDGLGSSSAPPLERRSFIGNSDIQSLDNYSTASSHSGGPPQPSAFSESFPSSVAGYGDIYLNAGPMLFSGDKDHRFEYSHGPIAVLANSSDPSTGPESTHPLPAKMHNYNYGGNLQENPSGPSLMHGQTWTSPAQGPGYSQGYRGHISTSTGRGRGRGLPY
Active and inactive are the calls of the source.
Pick from active, inactive when you respond.

molecule	class.name
CNC(=O)c1cccc(-c2ccc3c(N4CCOC[C@@H]4C)nc(N4CCOC[C@@H]4C)nc3n2)c1 [VISTUSERTIB]	inactive
C=CCN(/C=C1/C(=O)O[C@H](COC)[C@@]2(C)C1=C(O)C(=O)C1=C2[C@H](OC(C)=O)C[C@]2(C)C(=O)CC[C@@H]12)CC=C [SONOLISIB]	inactive
Cc1c(Cn2c(C)nc3c(C(=O)O)cc(N4CCOCC4)cc32)cccc1C(F)(F)F [GSK-2636771]	inactive
COc1ccc2c(OCc3nnc4ccc(-c5ccccc5)nn34)ccnc2c1 [AMG-208]	inactive
COc1cccc2cc(-c3nc([C@H]4CC[C@H](C(=O)O)CC4)n4ncnc(N)c34)[nH]c12 [OSI-027]	inactive

Field: next molecule
Input: Name the outcome recorded for c1cc(OCCN2CCCCC2)cc(-c2n[nH]c3ccc(-c4nc[nH]n4)cc23)c1 [CC-401] in the assay.
Output: inactive

###

measurement.target: Dual specificity protein kinase CLK1 (Homo sapiens); further: in the data inactive means no Kd found up to 30 µM
Sequence (P49759 whole entry): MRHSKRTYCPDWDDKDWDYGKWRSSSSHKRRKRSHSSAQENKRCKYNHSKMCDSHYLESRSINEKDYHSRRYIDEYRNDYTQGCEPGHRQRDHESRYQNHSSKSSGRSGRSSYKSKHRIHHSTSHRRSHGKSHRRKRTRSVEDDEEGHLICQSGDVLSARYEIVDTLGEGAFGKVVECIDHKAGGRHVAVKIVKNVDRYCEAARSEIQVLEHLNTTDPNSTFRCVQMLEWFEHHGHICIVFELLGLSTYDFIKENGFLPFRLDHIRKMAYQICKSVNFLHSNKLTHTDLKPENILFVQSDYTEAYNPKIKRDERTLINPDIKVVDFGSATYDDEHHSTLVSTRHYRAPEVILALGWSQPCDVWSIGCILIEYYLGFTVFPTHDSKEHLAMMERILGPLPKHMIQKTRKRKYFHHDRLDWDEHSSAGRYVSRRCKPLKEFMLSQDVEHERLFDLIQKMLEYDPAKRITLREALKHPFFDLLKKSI
Calls of active or inactive are those of the source.
Please answer using one outcome listed in YES for active, NO for inactive

Input: # lookup: test call for `Cc1cc(-c2cc(OC(=O)c3ccccc3)ccc2Cl)cc2nnc(Nc3ccc(OCCN4CCCC4)cc3)nc12`
Output: NO

###

measurement.target: Mitogen-activated protein kinase 8 (Homo sapiens, UniProt P45983); further: in the data inactive means no Kd found up to 30 µM
Sequence (P45983 whole entry): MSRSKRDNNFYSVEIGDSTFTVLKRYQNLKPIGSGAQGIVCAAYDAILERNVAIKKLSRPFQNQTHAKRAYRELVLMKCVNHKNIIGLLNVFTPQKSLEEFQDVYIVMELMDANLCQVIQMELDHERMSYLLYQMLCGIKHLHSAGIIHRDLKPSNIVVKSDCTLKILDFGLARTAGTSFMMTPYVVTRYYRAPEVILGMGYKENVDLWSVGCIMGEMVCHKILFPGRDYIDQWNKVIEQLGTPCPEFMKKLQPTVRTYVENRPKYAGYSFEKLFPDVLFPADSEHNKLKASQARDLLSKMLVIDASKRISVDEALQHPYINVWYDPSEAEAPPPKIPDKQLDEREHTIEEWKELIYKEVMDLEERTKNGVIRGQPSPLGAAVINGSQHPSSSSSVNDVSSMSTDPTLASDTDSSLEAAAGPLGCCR
The source made the active and inactive calls.
// classify into Yes for active, No for inactive

compound	class.name
CN1CCN(c2nc(C3=C(c4c[nH]c5ccccc45)C(=O)NC3=O)c3ccccc3n2)CC1 [SOTRASTAURIN]	No
CCN1CCN(Cc2ccc(Nc3ncc(F)c(-c4cc(F)c5nc(C)n(C(C)C)c5c4)n3)nc2)CC1 [ABEMACICLIB]	Yes
C=CC(=O)Nc1cc(Nc2nccc(-c3cn(C)c4ccccc34)n2)c(OC)cc1N(C)CCN(C)C [OSIMERTINIB]	No
COc1ccc(-c2ccc3ncc4c(c3c2)n(-c2ccc(N3CCNCC3)c(C(F)(F)F)c2)c(=O)n4C)cn1 [BGT-226 FREE BASE]	No

Please examine the following record next.
Input: State the result this test recorded for CC1(COc2ccc3c(c2)ncn3-c2ccc3cccc(N4CCC(N)CC4)c3n2)COC1 [CRENOLANIB] .
Output: No

###

# Kd values compiled below
measurement.target: Tyrosine-protein kinase Fgr (Homo sapiens); further: in the data inactive means no Kd found up to 30 µM
Activity calls are given as the source filed them.

Here is how some compounds turned out for Kd.
compound	measurement.target	Kd
COc1ccc(-c2ccc3ncc4c(c3c2)n(-c2ccc(N3CCNCC3)c(C(F)(F)F)c2)c(=O)n4C)cn1 [BGT-226 FREE BASE]	Tyrosine-protein kinase Fgr (Homo sapiens)	> 30 µM (inactive)
C#Cc1cccc(Nc2ncnc3cc4c(cc23)OCCOCCOCCO4)c1 [ICOTINIB]	Tyrosine-protein kinase Fgr (Homo sapiens)	> 30 µM (inactive)

Attention now shifts to the item below.
Input: API: value(readout=Kd, system=Tyrosine-protein kinase Fgr (Homo sapiens)) for record CNC(=O)c1cccc(-c2ccc3c(N4CCOC[C@@H]4C)nc(N4CCOC[C@@H]4C)nc3n2)c1 [VISTUSERTIB]; further: in the data inactive means no Kd found up to 30 µM
Output: > 30 µM (inactive)

###

measurement.target: Maternal embryonic leucine zipper kinase (Homo sapiens, UniProt Q14680); further: in the data inactive means no Kd found up to 30 µM
Sequence (Q14680 whole entry): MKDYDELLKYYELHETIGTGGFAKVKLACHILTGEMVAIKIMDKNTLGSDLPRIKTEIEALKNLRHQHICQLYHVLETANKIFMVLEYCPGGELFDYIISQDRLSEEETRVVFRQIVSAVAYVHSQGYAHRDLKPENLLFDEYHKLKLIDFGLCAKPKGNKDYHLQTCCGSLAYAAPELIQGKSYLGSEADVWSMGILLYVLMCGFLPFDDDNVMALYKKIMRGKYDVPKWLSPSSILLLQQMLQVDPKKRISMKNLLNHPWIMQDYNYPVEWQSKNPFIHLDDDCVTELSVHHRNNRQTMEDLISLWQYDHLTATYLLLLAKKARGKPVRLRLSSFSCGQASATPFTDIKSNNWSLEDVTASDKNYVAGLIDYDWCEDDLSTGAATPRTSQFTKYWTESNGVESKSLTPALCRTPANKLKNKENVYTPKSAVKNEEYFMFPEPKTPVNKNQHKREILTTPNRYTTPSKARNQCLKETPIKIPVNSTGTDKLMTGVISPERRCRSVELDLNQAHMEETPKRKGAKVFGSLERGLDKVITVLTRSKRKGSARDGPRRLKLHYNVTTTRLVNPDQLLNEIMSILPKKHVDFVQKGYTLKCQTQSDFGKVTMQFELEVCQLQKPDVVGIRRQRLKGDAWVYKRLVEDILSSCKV
Activity calls are given as the source filed them.
Returns: one label drawn from t (active), f (inactive)

compound	class.name
O=c1[nH]c([C@@H]2CCCN2)nc2c1oc1ccc(Cl)cc12	f

Input: Would you mind telling me which call this test gave `Cc1cc(Nc2nc(N[C@@H](C)c3ncc(F)cn3)ncc2Cl)n[nH]1` ?
Output: f

Input: Recorded test outcome, item `CNC(=O)c1cccc(-c2ccc3c(N4CCOC[C@@H]4C)nc(N4CCOC[C@@H]4C)nc3n2)c1`
Output: f

Input: Per the records of this test, what outcome belongs to `Cn1c(=O)c(F)c(Nc2ccc(I)cc2F)c2c(=O)n(C[C@@H](O)CO)cnc21` ?
Output: f

Input: What did the test return for `O=C(NC[C@H](O)CO)c1ccncc1Nc1ccc(I)cc1F` ?
Output: f

Input: GET /call?item= `O=C(NOC[C@H](O)CO)c1ccc(F)c(F)c1Nc1ccc(I)cc1F` returns the recorded outcome of this test.
Output: f

###

measurement.target: Mitogen-activated protein kinase 7 (Homo sapiens); further: in the data inactive means no Kd found up to 30 µM
Calls of active or inactive are those of the source.
test.readout: Kd

Input: Provide value of Kd for this record tested with Mitogen-activated protein kinase 7 (Homo sapiens): C=CCN(/C=C1/C(=O)O[C@H](COC)[C@@]2(C)C1=C(O)C(=O)C1=C2[C@H](OC(C)=O)C[C@]2(C)C(=O)CC[C@@H]12)CC=C [SONOLISIB]
Output: > 30 µM (inactive)

Input: Query the reported Kd for Mitogen-activated protein kinase 7 (Homo sapiens); item: CC(C)CC(=O)Nc1[nH]nc2c1CN(C(=O)C1CCN(C)CC1)C2(C)C [PHA-793887]
Output: > 30 µM (inactive)

Input: Please state recorded Kd (tested on Mitogen-activated protein kinase 7 (Homo sapiens)) of CCc1nc(C(N)=O)c(Nc2ccc(N3CCC(N4CCN(C)CC4)CC3)c(OC)c2)nc1NC1CCOCC1 [GILTERITINIB]; further: in the data inactive means no Kd found up to 30 µM
Output: > 30 µM (inactive)

Input: Give the reported Kd for C=CC(=O)Nc1cc(Nc2nccc(-c3cn(C)c4ccccc34)n2)c(OC)cc1N(C)CCN(C)C [OSIMERTINIB] (system: Mitogen-activated protein kinase 7 (Homo sapiens)). Further: in the data inactive means no Kd found up to 30 µM.
Output: > 30 µM (inactive)

Input: Give recorded Kd with Mitogen-activated protein kinase 7 (Homo sapiens) for the following compound: O=S(=O)(c1cccc2cnccc12)N1CCCNCC1 [FASUDIL]
Output: > 30 µM (inactive)

Input: Notebook: pull reported Kd for Mitogen-activated protein kinase 7 (Homo sapiens), entry Cc1cc(Nc2nc(N[C@@H](C)c3ncc(F)cn3)ncc2Cl)n[nH]1 [AZD-1480]
Output: > 30 µM (inactive)

Input: State its Kd on Mitogen-activated protein kinase 7 (Homo sapiens): Cc1ccc(C(=O)Nc2ccc(Oc3cc4cnn(C)c4cc3-c3cn[nH]c3)c(F)c2)c(=O)n1-c1ccc(F)cc1 [MERESTINIB]
Output: > 30 µM (inactive)

Input: Find Kd (Mitogen-activated protein kinase 7 (Homo sapiens)) for the entry COCCN1CCN(Cc2ccc(-c3n[nH]c4c3C(=O)c3c(NC(=O)NN5CCOCC5)cccc3-4)cc2)CC1 [RGB-286638]
Output: > 30 µM (inactive)

###

measurement.target: Mitogen-activated protein kinase 1 (Homo sapiens, UniProt P28482); further: in the data inactive means no Kd found up to 30 µM
Sequence (P28482 whole entry): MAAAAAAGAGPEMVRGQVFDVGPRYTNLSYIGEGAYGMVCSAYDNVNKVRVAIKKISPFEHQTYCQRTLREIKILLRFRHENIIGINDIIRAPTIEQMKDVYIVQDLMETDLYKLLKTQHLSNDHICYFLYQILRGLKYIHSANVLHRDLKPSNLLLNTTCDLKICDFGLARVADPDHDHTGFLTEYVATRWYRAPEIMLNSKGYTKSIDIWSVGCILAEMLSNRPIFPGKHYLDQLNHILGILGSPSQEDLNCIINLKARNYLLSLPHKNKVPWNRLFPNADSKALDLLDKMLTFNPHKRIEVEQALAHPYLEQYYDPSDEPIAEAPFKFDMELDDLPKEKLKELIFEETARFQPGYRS
Activity calls are given as the source filed them.
Respond only with the outcome that fits, drawn from YES (active), NO (inactive)

Input: Query: recorded result category for `CN(c1ncccc1CNc1nc(Nc2ccc3c(c2)CC(=O)N3)ncc1C(F)(F)F)S(C)(=O)=O` in this test
Output: YES

###

In what follows, each item is paired with its Kd for Ras-related protein Rab-6A (Homo sapiens, UniProt P20340).
Active and inactive are the calls of the source.

CC[C@@](C)(Nc1ccnc(-c2c[nH]c3ncccc23)n1)C(=O)NCC(F)(F)F > 30 µM (inactive)
CNC(=O)c1ccc(Nc2ncc(C(F)(F)F)c(NCc3nccnc3N(C)S(C)(=O)=O)n2)cc1 > 30 µM (inactive)
COc1cccc2cc(-c3nc([C@H]4CC[C@H](C(=O)O)CC4)n4ncnc(N)c34)[nH]c12 > 30 µM (inactive)

From here, focus on the item given below.
Input: Checklist item: Kd tested on Ras-related protein Rab-6A (Homo sapiens, UniProt P20340), entry `C[C@@H]1COC(Nc2ccc3ncnc(Nc4ccc(OCc5nccs5)c(Cl)c4)c3c2)=N1` , value?; further: in the data inactive means no Kd found up to 30 µM
Sequence (P20340 whole entry): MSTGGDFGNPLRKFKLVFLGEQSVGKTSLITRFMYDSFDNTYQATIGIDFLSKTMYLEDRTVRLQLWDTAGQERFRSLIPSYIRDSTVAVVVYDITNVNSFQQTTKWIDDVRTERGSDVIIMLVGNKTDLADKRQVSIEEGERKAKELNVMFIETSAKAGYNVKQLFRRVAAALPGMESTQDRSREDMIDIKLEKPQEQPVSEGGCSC
Output: > 30 µM (inactive)

###

Listing of entries alongside the reported Kd.
measurement.target: Serine/threonine-protein kinase/endoribonuclease IRE2 (Homo sapiens, UniProt Q76MJ5); further: in the data inactive means no Kd found up to 30 µM
Sequence (Q76MJ5 whole entry): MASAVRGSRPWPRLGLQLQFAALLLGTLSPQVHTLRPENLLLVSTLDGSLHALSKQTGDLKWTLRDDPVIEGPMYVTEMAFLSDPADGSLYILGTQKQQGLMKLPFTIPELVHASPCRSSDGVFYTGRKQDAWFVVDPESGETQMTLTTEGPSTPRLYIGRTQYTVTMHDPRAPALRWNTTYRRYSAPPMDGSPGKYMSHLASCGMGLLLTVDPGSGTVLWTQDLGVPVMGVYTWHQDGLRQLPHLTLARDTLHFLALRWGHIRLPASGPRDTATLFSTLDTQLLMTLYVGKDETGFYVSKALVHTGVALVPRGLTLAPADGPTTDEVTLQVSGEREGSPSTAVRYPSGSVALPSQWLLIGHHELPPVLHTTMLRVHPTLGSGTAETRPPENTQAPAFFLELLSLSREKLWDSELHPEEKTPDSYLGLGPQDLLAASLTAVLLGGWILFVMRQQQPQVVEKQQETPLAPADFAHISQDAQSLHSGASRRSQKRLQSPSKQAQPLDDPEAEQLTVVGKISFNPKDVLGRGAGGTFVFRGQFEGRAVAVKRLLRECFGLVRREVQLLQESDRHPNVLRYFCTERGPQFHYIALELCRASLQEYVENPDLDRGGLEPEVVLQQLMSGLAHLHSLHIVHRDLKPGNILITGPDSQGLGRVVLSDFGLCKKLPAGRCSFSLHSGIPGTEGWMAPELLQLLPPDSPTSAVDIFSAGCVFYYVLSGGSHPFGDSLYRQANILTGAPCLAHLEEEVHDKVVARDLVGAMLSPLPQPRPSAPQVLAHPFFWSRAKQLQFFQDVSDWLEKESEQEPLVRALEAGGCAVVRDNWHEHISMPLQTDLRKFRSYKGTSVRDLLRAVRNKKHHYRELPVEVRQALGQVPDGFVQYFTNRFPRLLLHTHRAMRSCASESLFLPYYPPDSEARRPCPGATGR
The source made the active and inactive calls.

Here's what some known entries look like.
molecule	Kd
COc1cc2ncnc(Nc3ccc(O)cc3)c2cc1OC	> 30 µM (inactive)
COc1cccc2cc(-c3nc([C@H]4CC[C@H](C(=O)O)CC4)n4ncnc(N)c34)[nH]c12	> 30 µM (inactive)
O=C(NC[C@H](O)CO)c1ccncc1Nc1ccc(I)cc1F	> 30 µM (inactive)
O=C(O)c1ccc2c(c1)nc(Nc1cccc(Cl)c1)c1ccncc12	> 30 µM (inactive)
C[C@]1(O)C[C@@H](c2nc(-c3ccc4ccc(-c5ccccc5)nc4c3)c3c(N)nccn32)C1	> 30 µM (inactive)
C=CC(=O)Nc1cccc(Nc2nc(Nc3ccc(N4CCN(C(C)=O)CC4)cc3OC)ncc2C(F)(F)F)c1	> 30 µM (inactive)
COc1cc2nccc(Oc3ccc(NC(=O)C4(C(=O)Nc5ccc(F)cc5)CC4)cc3)c2cc1OC [CABOZANTINIB]	> 30 µM (inactive)
Cc1cc(Nc2nc(N[C@@H](C)c3ncc(F)cn3)ncc2Cl)n[nH]1	> 30 µM (inactive)

// next entry
Input: // map `O=S(=O)(c1cccc2cnccc12)N1CCCNCC1` to recorded Kd (system: Serine/threonine-protein kinase/endoribonuclease IRE2 (Homo sapiens, UniProt Q76MJ5)); further: in the data inactive means no Kd found up to 30 µM
Output: > 30 µM (inactive)

Data credit: ChEMBL document CHEMBL3991601
